- TGT: Pim-2 (Homo sapiens (Human))
- Sequence (Q9P1W9 whole entry): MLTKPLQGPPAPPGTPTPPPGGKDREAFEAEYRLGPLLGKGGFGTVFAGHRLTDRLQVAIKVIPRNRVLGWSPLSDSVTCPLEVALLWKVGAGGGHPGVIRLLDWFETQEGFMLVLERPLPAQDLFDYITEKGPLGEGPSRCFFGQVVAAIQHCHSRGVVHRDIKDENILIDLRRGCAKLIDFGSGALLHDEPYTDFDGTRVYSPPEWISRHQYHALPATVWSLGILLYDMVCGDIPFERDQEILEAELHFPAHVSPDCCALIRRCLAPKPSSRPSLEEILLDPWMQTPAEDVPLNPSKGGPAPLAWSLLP
pIC50: −log10 of the molar value.
ENDPOINT NAME: pIC50

INSERT INTO measurements (compound, measured_value) VALUES
  ('C[C@@H]1C[C@H](N)C[C@H](c2ccncc2NC(=O)c2ccc(F)c3cc(N4CCSCC4)cnc23)C1', '≥ 7.00'),
  ('CC1CN(c2cnc3c(C(=O)Nc4cnccc4[C@@H]4C[C@H](C)C[C@H](N)C4)ccc(F)c3c2)C(C)CO1 (stereo partly shown)', '5.00 to 6.00'),
  ('C[C@@H]1C[C@H](N)C[C@H](c2ccncc2NC(=O)c2ccc(F)c3cc(N4CCCCCC4)cnc23)C1', '≥ 7.00'),
  ('C[C@@H]1C[C@H](N)C[C@H](c2ccncc2NC(=O)c2ccc(F)c3cc(C#CC4CC4)cnc23)C1', '6.00 to 7.00'),
  ('C[C@@H]1C[C@H](N)C[C@H](c2ccncc2NC(=O)c2ccc(F)c3cc(Nc4ccccc4C#N)cnc23)C1', '6.00 to 7.00'),
  ('CCc1cnc2c(C(=O)Nc3cnccc3[C@@H]3C[C@H](C)C[C@H](N)C3)ccc(F)c2c1', '6.00 to 7.00'),
  ('C[C@@H]1C[C@H](N)C[C@H](c2ccncc2NC(=O)c2ccc(F)c3cc(N4CCC[C@@H](F)C4)cnc23)C1', '≥ 7.00');
